meta.source: PubChem BioAssay AID1159580

Assay: chemical genetic growth profiling, strain panel (AID 1159580);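 also: tested at 20 µM; growth read once vehicle control cultures reached saturation at 30 °C; 1 = growth at the plate median or of vehicle wells; lower values mean less growth of the strain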
Settings: S. cerevisiae deletion strains, growth OD, locus YPL241C, strain CIN2, active compounds read low
Hit rate of the full screen: of about 5,500 compounds, about 2,000 (36%) were called active. Not shown: some 18% with an inconclusive outcome. The list shows a part of the results.
Binary call on normalized growth with cut-off 1: strictly below means true, and equality or higher means false.

Study these solved cases before continuing.
>>> class("CCN(CC)CCCC(C)Nc1c2ccc(Cl)cc2nc2ccc(OC)cc12 (configuration not stated)")
"true"
>>> class("COC(=O)/C(=C/N(C)C)Sc1cc(C)c(Cl)cc1Cl")
"true"
>>> class("COc1ccc(NC(=O)c2cc(C(F)(F)F)cc(C(F)(F)F)c2)cn1")
"true"
>>> class("COc1ccc(CN2C(=O)CSC2c2ccccn2)cc1 (configuration not stated)")
"false"
>>> class("Cc1ccc(OS(=O)(=O)c2ccc(C#N)cc2)c(Br)c1")
"true"

Consider the additional molecule presented here.
Threshold test, normalized growth < 1: CCOC(=O)c1cc(C)nc(Sc2ccccc2)c1C#N
true

---

Assay: chemical genetic growth profiling, strain panel (AID 1159580);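 also: tested at 20 µM; growth read once vehicle control cultures reached saturation at 30 °C; 1 = growth at the plate median or of vehicle wells; lower values mean less growth of the strain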
Details: S. cerevisiae deletion strains, growth OD, locus YDR502C, strain sam2
Out of some 5,500 compounds screened, about 2,000 (36%) were called active. Roughly 18% stayed inconclusive and do not appear here. Rule as the data show it: active = normalized growth mostly below about 0.91 (no sharp cut-off); inconclusive = no clear call, values can overlap the other calls; inactive = mostly above about 0.92. The list shows a part of the results.
Parameter call: string, one of active, inactive

Study these solved cases before continuing.
>>> class("CN1CCC(=C2c3ccccc3CC(=O)c3sccc32)CC1")
"inactive"
>>> class("C[C@H]1CC2C([C@@H](O)C[C@@]3(C)C2CC[C@]3(O)C(=O)CO)[C@@]2(C)C=CC(=O)C=C12 (stereo partly specified)")
"inactive"
>>> class("CC[C@H]1OC(=O)[C@H](C)[C@@H](O[C@H]2C[C@@](C)(OC)[C@@H](O)[C@H](C)O2)[C@H](C)[C@@H](O[C@@H]2O[C@H](C)C[C@H](N(C)C)[C@H]2O)[C@](C)(O)C[C@@H](C)CN(C)[C@H](C)[C@@H](O)[C@]1(C)O")
"inactive"
>>> class("O=C(O)c1cc2ccccc2c(Cc2c(O)c(C(=O)O)cc3ccccc23)c1O")
"inactive"
>>> class("Cc1c(O)c(C(=O)CC(C)C)c2oc3c(C(=O)CC(C)C)c(O)c(C)c(O)c3c2c1O")
"inactive"
>>> class("CC1CC2C3CC(F)C4=CC(=O)C=CC4(C)C3(F)C(O)CC2(C)C1(O)C(=O)CO (stereo unspecified)")
"inactive"

Per the records of this test, what outcome belongs to COc1ccc2c(c1)OCc1c-2oc2cc(OC)ccc12 ?
inactive

---

Assay: chemical genetic growth profiling, strain panel (AID 1159580);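 also: tested at 20 µM; growth read once vehicle control cultures reached saturation at 30 °C; 1 = growth at the plate median or of vehicle wells; lower values mean less growth of the strain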
Conditions: S. cerevisiae deletion strains, growth OD, locus YKL085W, strain MDH1, active compounds read low
In all, about 5,500 compounds went through this assay and about 2,000 (36%) were called active. Inconclusive results (about 18%) are left out. The list shows a part of the results.
parameter_measured: normalized growth
Please state the value as a number alone, without comment.

Before answering, review these 6 worked examples.
>>> measurement("CO[C@H]1[C@H](O)[C@H](O[C@H]2CC[C@]3(C)C4CC[C@]5(C)C(C6=CC(=O)OC6)CC[C@]5(O)C4CC[C@@H]3C2)O[C@@H](C)[C@@H]1O (stereo not given in full)")
1.01
>>> measurement("Cc1cc(O)c(C)c(O)c1C(=O)O")
0.997
>>> measurement("CC(C)CC(NC(=O)C(Cc1ccccc1)NC(=O)CNC(=O)CNC(=O)C(N)Cc1ccc(O)cc1)C(=O)O (stereo not given)")
0.99
>>> measurement("CC[C@H](/C=C/C(C)C1CCC2C3CCC4=CC(=O)CC[C@]4(C)C3CC[C@]12C)C(C)C (stereo not given in full)")
1.01
>>> measurement("CCOC(=O)c1c(C)cc(O)c(C)c1O")
0.943
>>> measurement("CC(NCCc1ccc(O)cc1)C(O)c1ccc(O)cc1 (stereo not given)")
0.984

So what does the record say about normalized growth for COCCc1ccc(OCC(O)CNC(C)C)cc1 (stereo not given) ?
0.998

So what does the record say about normalized growth for O=C(O)c1c2ccccc2cc2ccccc12 ?
0.958

So what does the record say about normalized growth for CC1=C(CC(=O)O)c2cc(F)ccc2/C1=C\c1ccc(S(C)=O)cc1 (stereo not given) ?
1.02
